Entries and their Activity values follow.
# Tested system: UniProtKB P30542
# Sequence (whole entry): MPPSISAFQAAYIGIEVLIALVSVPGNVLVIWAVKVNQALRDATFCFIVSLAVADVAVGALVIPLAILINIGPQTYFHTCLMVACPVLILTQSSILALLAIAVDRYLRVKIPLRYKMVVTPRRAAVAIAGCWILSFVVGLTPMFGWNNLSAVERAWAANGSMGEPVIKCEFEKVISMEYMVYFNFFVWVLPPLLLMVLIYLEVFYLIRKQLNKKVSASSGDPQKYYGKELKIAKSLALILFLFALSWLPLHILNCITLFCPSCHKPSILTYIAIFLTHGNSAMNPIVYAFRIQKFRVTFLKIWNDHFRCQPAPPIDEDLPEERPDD
# Assay notes: Agonist activity at recombinant human adenosine A1 receptor […] at 10 uM by HTRF assay relative to agonist
# Format: functional
Could you give me the number in %? Just the number is fine.

# Line notation, Tested system, Activity (%)
measured = [
    ("CN(CCNC(=O)c1ccc(Cl)cc1)Cc1ccccc1", "UniProtKB P30542", -11),
    ("CN(CCNC(=O)c1ccc(C#N)cc1)Cc1ccccc1", "UniProtKB P30542", 1),
    ("CN(CCCNC(=O)c1ccc(C(F)(F)F)cc1)Cc1ccccc1", "UniProtKB P30542", -4),
    ("COc1ccc(C(=O)NCCCN(C)Cc2ccccc2)cc1", "UniProtKB P30542", -3),
    ("CCCc1ccc(C(=O)NCCCN(C)Cc2ccccc2)cc1", "UniProtKB P30542", -3),
    ("CN(CCCNC(=O)c1ccc([N+](=O)[O-])cc1)Cc1ccccc1", "UniProtKB P30542", -9),
    ("CN(CCCNC(=O)c1ccc(Cl)cc1)Cc1ccccc1", "UniProtKB P30542", -3),
    ("CN(CCCNC(=O)c1ccc(Br)cc1)Cc1ccccc1", "UniProtKB P30542", -8),
    ("CN(CCCNC(=O)c1ccc(Cl)cc1)CCc1ccccc1", "UniProtKB P30542", -13),
    ("COc1cccc(C(=O)NCCCN(C)Cc2ccccc2)c1", "UniProtKB P30542", -6),
]

Quick one: Activity of CN(CCNC(=O)c1ccc([N+](=O)[O-])cc1)Cc1ccccc1 ?
0

Now consider CN(CCCNC(=O)c1cccc(Br)c1)Cc1ccccc1 .
-12
